# Experiment description: Chemical stability study: vitamin contents on storage at 20 °C/ambient RH
# Assay type: physicochemical
# Measurement parameters: Example 4 vitamin and mineral syrup, batch 2, time 0
Result type: Initial content (μg/5 ml)
Answers are plain numbers, in μg/5 ml.

{"Smiles str": "O=C(O)CCCC[C@@H]1SC[C@@H]2NC(=O)N[C@@H]21", "Initial content, μg/5 ml": 116}

Now let's try a different one.
stdin: Given the compound Nc1nc2ncc(CNc3ccc(C(=O)N[C@@H](CCC(=O)O)C(=O)O)cc3)nc2c(=O)[nH]1 , write its reported Initial content.
stdout: 266

----------
# Experiment description: Chemical stability study: vitamin contents on storage at 20 °C/ambient RH
# Assay type: physicochemical
# Measurement parameters: Example 1 syrup, production batch 1, time 0
Result type: Initial vitamin content
For clarity, give the value followed by its unit.

Past entries and their recorded results:
{"Smiles str": "Cc1ncc(CO)c(CO)c1O", "Initial vitamin content": "1.21 mg/10 ml"}
{"Smiles str": "Cc1c(C)c2c(c(C)c1O)CC[C@@](C)(CCC[C@H](C)CCC[C@H](C)CCCC(C)C)O2", "Initial vitamin content": "6.2 mg/10 ml"}

Now let's try a different one.
stdin: Given the compound Cc1cc2nc3c(=O)[nH]c(=O)nc-3n(C[C@H](O)[C@H](O)[C@H](O)CO)c2cc1C , write its reported Initial vitamin content.
stdout: 1.05 mg/10 ml
